- System: EW-7 (Ewing's Sarcoma)
- experiment.notes: combination Emax (second highest fraction inhibited in the dose matrix, 72 h); higher = more inhibition; extreme values may be limits of the assay
Decide by combination Emax: equal to or exceeding 0.6 means MET, less means NOT MET.

As a guide, the following entries are already answered.
molecule	answer.label
Cc1c2c(nn1C)CSCc1cc(n(C)n1)CSc1cc(c3ccccc3c1)OCCCc1c(C(=O)O)n(C)c3c-2c(Cl)ccc13 [AZD5991] + Cc1cc2ncnn2cc1Nc1ncc2c(n1)n(C1CCOCC1)c(=O)n2C [AZD7648] (first compound max 1 µM, 7x7, partner max 10 µM)	MET
C=CCn1c(=O)c2cnc(Nc3ccc(N4CCN(C)CC4)cc3)nc2n1-c1cccc(C(C)(C)O)n1 [AZD1775] + Nc1ccn([C@@H]2O[C@H](CO)[C@@H](O)C2(F)F)c(=O)n1 [Gemcitabine] (first compound max 1 µM, partner max 0.3 µM)	MET
C=CCn1c(=O)c2cnc(Nc3ccc(N4CCN(C)CC4)cc3)nc2n1-c1cccc(C(C)(C)O)n1 [AZD1775] + C1CN(CCC1(C(=O)N[C@@H](CCO)C2=CC=C(C=C2)Cl)N)C3=NC=NC4=C3C=CN4 [Capivasertib] (first compound max 3 µM, partner max 3 µM)	MET
CN(C)CCCOc1ccc(-c2ccc3ncc4c(c3c2)n(C2CCOCC2)c(=O)n4C)cn1 [AZD0156] + CCN(CCO)CCCOc1ccc2c(Nc3cc(CC(=O)Nc4cccc(F)c4)[nH]n3)ncnc2c1 [AZD2811] (first compound max 1 µM, 7x7, partner max 1 µM)	NOT MET

State whether the measured combination Emax reaches 0.6, counting equality as reaching it, for CN(CCO)CC[C@H](CSc1ccccc1)Nc1ccc(S(=O)(=O)NC(=O)c2ccc(N3CCC([C@@H](O)c4ccccc4-c4ccc(Cl)cc4)CC3)cc2)cc1S(=O)(=O)C(F)(F)F [AZD4320] + CCN(CCO)CCCOc1ccc2c(Nc3cc(CC(=O)Nc4cccc(F)c4)[nH]n3)ncnc2c1 [AZD2811] (first compound max 1 µM, 7x7, partner max 1 µM)
MET

State whether the measured combination Emax reaches 0.6, counting equality as reaching it, for C[C@@H](c1ccc2nccn2c1)n1nnc2ncc(-c3cnn(C)c3)nc21 [Savolitinib] + Cc1c2c(nn1C)CSCc1cc(n(C)n1)CSc1cc(c3ccccc3c1)OCCCc1c(C(=O)O)n(C)c3c-2c(Cl)ccc13 [AZD5991] (first compound max 1 µM, 7x7, partner max 1 µM)
NOT MET
